Data provenance: PubChem BioAssay AID624256

method summary: HoxA9-arrested leukemia cell differentiation promoters – flow cytometry, MLPCN library, primary screen (AID 624256);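 for normalized GFP-positive differentiation: cells exposed to compound for four days before flow analysis; 0% = DMSO wells and 100% = fulvestrant positive control at 5 µM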
particulars: ER-HoxA9 myeloid progenitors, lysozyme-GFP differentiation, at 10 µM; stronger effect = higher value
The campaign covered roughly 360,000 compounds. About 3,700 (1%) were called active. About 2% were inconclusive and are not listed. The list comes from a sample in which actives are over-represented; it also holds close analogues and randomly drawn compounds.
endpoint: normalized GFP-positive differentiation

                                   compound  value_observed
0  COc1ccc(-c2cc(NC=O)c3ncc(-c4ccccc4)n3c2)cc1OC        inactive
1  CC(C)OC(=O)C(C#N)c1nc2ccccc2nc1N1CCN(Cc2ccccc2)CC1 (stereo not given)  12.1% (active)
2      COC(=O)c1sc(N2CCN(Cc3ccccc3)CC2)nc1N        inactive
3  COc1ccc(CCCNC(=O)C2Cc3c(-c4cccc(C(N)=O)c4)ccnc3O2)cc1 (stereo not given)        inactive

Lab note: "CC(C)n1c(CN2CCN(Cc3ccccc3)CC2)nc2ccccc21" gave normalized GFP-positive differentiation of inactive

Lab note: CC(CNC(=O)c1ccc(Br)o1)NC(=O)c1ccc(Br)o1 (stereo not given) gave normalized GFP-positive differentiation of inactive

Lab note: "CCOc1ccc(CCN2C(=O)C(=O)N([C@@H](CC(C)C)CN3CCC[C@H]3CN3C(=O)C(=O)NC[C@@H]3Cc3ccccc3)C[C@@H]2CC(C)C)cc1" gave normalized GFP-positive differentiation of inactive

Lab note: COCCNC(=O)C1CCCN(Cc2ccccc2Cl)CC1 (stereo not given) gave normalized GFP-positive differentiation of inactive

Lab note: CC1=C(C(=O)N2CCOCC2)CC(CC(=O)NCc2cccs2)C(=O)N1CCCN1CCCC1=O (stereo not given) gave normalized GFP-positive differentiation of inactive

Lab note: "CCS(=O)(=O)c1ccc(-c2cccc(NC(=O)c3ccc(Br)o3)c2)nn1" gave normalized GFP-positive differentiation of 11.8% (active)

---

method summary: HoxA9-arrested leukemia cell differentiation promoters – flow cytometry, MLPCN library, primary screen (AID 624256);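 for GFP+ MAC1+ double positive: cells exposed to compound for four days before flow analysis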
particulars: ER-HoxA9 myeloid progenitors, lysozyme-GFP differentiation, at 10 µM; measured here: differentiation confirmed by MAC1 staining, stronger effect = higher value
The whole screen tested about 360,000 compounds, of which about 3,700 (1%) were called active. About 2% were inconclusive and are not listed. Shown is part of a subset that was picked to be rich in actives.
Assign rule met whenever GFP+ MAC1+ double positive does not fall below 1%; assign rule not met whenever it does.

Answered examples (5):
In [3]: df
Out[3]:
                                   molecule  assigned_category
0  CC(C)NC(=O)C1(C)CCCCN1Cc1cccc(C(F)(F)F)c1 (configuration not stated)           rule met
1       CCCCCc1c(Cc2ccccc2)ncn1CCc1ccccc1OC           rule met
2        Cc1cc(=O)oc2c1c(C)nn2-c1ccc(Cl)cc1       rule not met
3  CSc1ccc(CN2CCC2(C)C(=O)Nc2ccc(C)c(O)c2)cc1 (configuration not stated)       rule not met
4  CC(C)C1C(=O)N(Cc2cn(CCC3OCCO3)nn2)CCS(=O)(=O)N1Cc1ccc(-c2ccccc2C(F)(F)F)cc1 (configuration not stated)           rule met

Is reported GFP+ MAC1+ double positive greater than or equal to 1% here: "Cc1ccc(-c2c(N)nc3ncccn23)cc1"
rule met

Is reported GFP+ MAC1+ double positive greater than or equal to 1% here: "CC(C)N(C(=O)[C@H]1C[C@H](CC(=O)NCCC2=CCCCC2)C(=O)N2CCc3c([nH]c4cc(CCC(=O)N(C)C)ccc34)[C@]12C)C(C)C"
rule not met

Is reported GFP+ MAC1+ double positive greater than or equal to 1% here: "OC[C@@H]1CN(Cc2cccs2)C[C@H](n2cnc3c(Nc4ccccc4)ncnc32)O1"
rule met

Is reported GFP+ MAC1+ double positive greater than or equal to 1% here: "Cc1cc2nc(-c3ccc(F)cc3)c(Cc3ccsc3)n2c(C)c1Br"
rule met

Is reported GFP+ MAC1+ double positive greater than or equal to 1% here: "COC(=O)c1ccc2nc(-c3ccccc3)c(Cc3ccc(OC)cc3C)n2c1"
rule met
